The values you see were collected from patent US5910498A.

# System: female ICR mouse
# procedure details: Phototoxicity test, ear abnormality after UV irradiation
# Type: in vivo
# cond: 40 mg/kg i.v., UV 320-400 nm 4 hours; 48 hours; affected/total mice
Recorded measurements of Frequency (ear abnormality), 48 hours, one per entry

Nc1cc(-n2cc(C(=O)O)c(=O)c3c(O)c(F)c(N4CC[C@H](N)C4)cc32)c(F)cc1F : 0/3

Query: What value of measured Frequency (ear abnormality), 48 hours is listed for Nc1cc(-n2cc(C(=O)O)c(=O)c3cc(F)c(N4CC(N)C4)c(Cl)c32)c(F)cc1F ?
Reply: 0/3

Query: I have this compound here, NC1CCN(c2nc3c(cc2F)c(=O)c(C(=O)O)cn3-c2ccc(F)cc2F)C1 (stereo not drawn) [tosufloxacin, reference compound] , and I need its recorded Frequency (ear abnormality), 48 hours.
Reply: 1/5

Query: Consider the compound Nc1cc(-n2cc(C(=O)O)c(=O)c3cc(F)c(N4CC(N)C4)c(F)c32)c(F)cc1F and give its measured Frequency (ear abnormality), 48 hours.
Reply: 0/3

Query: Param item = Nc1cc(-n2cc(C(=O)O)c(=O)c3cc(F)c(N4CC(N)C4)nc32)c(F)cc1F ; retrieve measured Frequency (ear abnormality), 48 hours.
Reply: 0/3

Query: Given the entry Nc1cc(-n2cc(C(=O)O)c(=O)c3cc(F)c(N4CC[C@H](N)C4)nc32)c(F)cc1F , report its measured Frequency (ear abnormality), 48 hours.
Reply: 0/3

* * *

Measured Rating (ear abnormality), 24 hours, listed per entry.
# Tested on: female ICR mouse
# procedure details: Phototoxicity test, ear abnormality after UV irradiation
# Format: in vivo
# cond: 40 mg/kg i.v., UV 320-400 nm 4 hours; 24 hours; point 0 no abnormality, 1 light, 2 medium erythema, 3 heavy erythema or edema
Quick one: just the number, no unit, thanks!

Nc1cc(-n2cc(C(=O)O)c(=O)c3cc(F)c(N4CC(N)C4)nc32)c(F)cc1F : 0

Query: Param item = Nc1cc(-n2cc(C(=O)O)c(=O)c3c(O)c(F)c(N4CC[C@H](N)C4)cc32)c(F)cc1F ; retrieve measured Rating (ear abnormality), 24 hours.
Reply: 0

Query: If you can, please state the reported Rating (ear abnormality), 24 hours value of Nc1cc(-n2cc(C(=O)O)c(=O)c3cc(F)c(N4CC(N)C4)c(F)c32)c(F)cc1F .
Reply: 0

Query: Dear colleague, I am looking for the recorded Rating (ear abnormality), 24 hours of the following compound: Nc1cc(-n2cc(C(=O)O)c(=O)c3cc(F)c(N4CC[C@H](N)C4)nc32)c(F)cc1F
Reply: 0

Query: Fill in: Rating (ear abnormality), 24 hours of NC1CCN(c2nc3c(cc2F)c(=O)c(C(=O)O)cn3-c2ccc(F)cc2F)C1 (stereo not drawn) [tosufloxacin, reference compound] is ___
Reply: 0.8

Query: Reported Rating (ear abnormality), 24 hours for Nc1cc(-n2cc(C(=O)O)c(=O)c3cc(F)c(N4CC(N)C4)c(Cl)c32)c(F)cc1F : what is it?
Reply: 0

* * *

# Test system: female ICR mouse
# procedure details: Phototoxicity test, ear abnormality after UV irradiation
# Format: in vivo
# cond: 40 mg/kg i.v., UV 320-400 nm 4 hours; 0 hour; point 0 no abnormality, 1 light, 2 medium erythema, 3 heavy erythema or edema
Parameter: Rating (ear abnormality), 0 hour. Scope: all listed entries.
Lab note: write the figure by itself, no unit.

// known answers, use as guide
Nc1cc(-n2cc(C(=O)O)c(=O)c3cc(F)c(N4CC(N)C4)c(Cl)c32)c(F)cc1F : 0
Nc1cc(-n2cc(C(=O)O)c(=O)c3cc(F)c(N4CC(N)C4)nc32)c(F)cc1F : 0

Query: State its Rating (ear abnormality), 0 hour on female ICR mouse: Nc1cc(-n2cc(C(=O)O)c(=O)c3c(O)c(F)c(N4CC[C@H](N)C4)cc32)c(F)cc1F
Reply: 0

Query: Please tell me: Rating (ear abnormality), 0 hour of Nc1cc(-n2cc(C(=O)O)c(=O)c3cc(F)c(N4CC(N)C4)c(F)c32)c(F)cc1F , system female ICR mouse?
Reply: 0

Query: GET /values?readout=Rating (ear abnormality), 0 hour&system=female ICR mouse&item= NC1CCN(c2nc3c(cc2F)c(=O)c(C(=O)O)cn3-c2ccc(F)cc2F)C1 (stereo not drawn) [tosufloxacin, reference compound]
Reply: 1.8

Query: Item Nc1cc(-n2cc(C(=O)O)c(=O)c3cc(F)c(N4CC[C@H](N)C4)nc32)c(F)cc1F with female ICR mouse - Rating (ear abnormality), 0 hour?
Reply: 0

* * *

# Test system: female ICR mouse
# procedure details: Phototoxicity test, ear abnormality after UV irradiation
# Type: in vivo
# cond: 40 mg/kg i.v., UV 320-400 nm 4 hours; 48 hours; point 0 no abnormality, 1 light, 2 medium erythema, 3 heavy erythema or edema
# Description: After a compound to be tested (40 mg/kg/10 ml) was intravenously administered to a female ICR mouse (5-6 weeks old), ultraviolet radiation (320 to 400 nm, 1.8 mW/cm^2 /sec.) was irradiated for 4 hours. […] Ear abnormality was rated point 0 for no abnormality, point 1 for light erythema, point 2 for medium erythema, and point 3 for heavy erythema or edema.
property: Rating (ear abnormality), 48 hours
Lab note: record just the number, no unit beside it.

A selection of reference data follows.
Nc1cc(-n2cc(C(=O)O)c(=O)c3c(O)c(F)c(N4CC[C@H](N)C4)cc32)c(F)cc1F : 0
Nc1cc(-n2cc(C(=O)O)c(=O)c3cc(F)c(N4CC[C@H](N)C4)nc32)c(F)cc1F : 0
Nc1cc(-n2cc(C(=O)O)c(=O)c3cc(F)c(N4CC(N)C4)nc32)c(F)cc1F : 0
Nc1cc(-n2cc(C(=O)O)c(=O)c3cc(F)c(N4CC(N)C4)c(Cl)c32)c(F)cc1F : 0
NC1CCN(c2nc3c(cc2F)c(=O)c(C(=O)O)cn3-c2ccc(F)cc2F)C1 (stereo not drawn) [tosufloxacin, reference compound] : 0.2

Turning to the following compound.
Query: Rating (ear abnormality), 48 hours for Nc1cc(-n2cc(C(=O)O)c(=O)c3cc(F)c(N4CC(N)C4)c(F)c32)c(F)cc1F ?
Reply: 0

* * *

# System: female ICR mouse
# procedure details: Phototoxicity test, ear abnormality after UV irradiation
# Format: in vivo
# cond: 40 mg/kg i.v., UV 320-400 nm 4 hours; 0 hour; affected/total mice
property: Frequency (ear abnormality), 0 hour

# annotated cases, reported Frequency (ear abnormality), 0 hour shown
Nc1cc(-n2cc(C(=O)O)c(=O)c3cc(F)c(N4CC[C@H](N)C4)nc32)c(F)cc1F : 0/3
Nc1cc(-n2cc(C(=O)O)c(=O)c3cc(F)c(N4CC(N)C4)c(Cl)c32)c(F)cc1F : 0/3

Query: Item under review: Nc1cc(-n2cc(C(=O)O)c(=O)c3cc(F)c(N4CC(N)C4)c(F)c32)c(F)cc1F . Reported Frequency (ear abnormality), 0 hour?
Reply: 0/3

Query: Can you look up the measured Frequency (ear abnormality), 0 hour of Nc1cc(-n2cc(C(=O)O)c(=O)c3cc(F)c(N4CC(N)C4)nc32)c(F)cc1F for me?
Reply: 0/3

Query: Which Frequency (ear abnormality), 0 hour reading was recorded for the molecule Nc1cc(-n2cc(C(=O)O)c(=O)c3c(O)c(F)c(N4CC[C@H](N)C4)cc32)c(F)cc1F ?
Reply: 0/3

Query: Could you tell me which Frequency (ear abnormality), 0 hour is on file for NC1CCN(c2nc3c(cc2F)c(=O)c(C(=O)O)cn3-c2ccc(F)cc2F)C1 (stereo not drawn) [tosufloxacin, reference compound] ?
Reply: 4/5
